- System: HCC 2998
- MEASUREMENT DESCRIPTION: NCI tumour cell line growth inhibition, 48 h
Activity calls are given as the source filed them. Cut-off read from the data, not from the text of the source: active = GI50 up to about 1.1 µM and inactive = higher.
RESULT TYPE: GI50

O=C(O)C1CCCCN1C(=O)Cc1c[nH]c2ccccc12 (centres undefined)
> 100 µM (inactive)
Cc1cc(-c2ccccc2)nc2oc(=O)n(C)c12
> 100 µM (inactive)
Cc1ccc2[nH]c3c(c(=O)n(C)c(=O)n3C)c2c1
> 100 µM (inactive)
C/C(=N\O)c1cccc(Nc2nc3ccccc3c3occc23)c1
14.6 µM (inactive)
CCC(/C=C/C1OC(=O)C=CC1C)=C\C(C)C/C=C/C(C)=C/C(C)C(=O)C(C)C(O)C(C)C/C(C)=C/C(=O)O (centres undefined)
6.76e-06 µM (active)
N#Cc1cccc2c1Sc1ccccc1N2
27 µM (inactive)
CCCCCCCCCCCCCC(=O)NCC(OCC)OCC
> 100 µM (inactive)
CC(=O)OCC1OC(OC2CC3C(C)(C)C(OC(C)=O)CC[C@]3(C)C3CCC45CC4(CC[C@H]5C(C)CC(O)C4OC4(C)C)[C@]23C)C(O)C(O)C1O (some centres undefined)
1.37 µM (inactive)
COc1cc2cc(C(=O)N3CC(CCl)c4c3cc(NC(=O)C(C)Nc3c([N+](=O)[O-])cc(C(=O)NCCN(C)C)cc3[N+](=O)[O-])c3ccccc43)[nH]c2c(OC)c1OC (centres undefined)
0.0315 µM (active)
Nc1nc(Cl)cc(Oc2ccc(Cl)cc2)n1
> 55.2 µM (inactive)
O=c1[nH]c(=O)n(C2CC(O)C(CO)O2)cc1C(OCC(F)(F)F)OCC(F)(F)F (centres undefined)
> 100 µM (inactive)
Cc1c(CC/C(=N\Nc2ccc([N+](=O)[O-])cc2[N+](=O)[O-])c2ccccc2)c2ccccc2n1C
> 100 µM (inactive)
NS(=O)(=O)c1ccc(NC(=S)N/C=C2\C(=O)Oc3ccccc3C2=O)cc1
34.8 µM (inactive)
CN1C(=O)c2cccc3cc([N+](=O)[O-])cc(c23)C1=O
> 10 µM (inactive)
O=C(/C=N/O)c1c(-c2ccccc2)[nH]c(-c2ccccc2)c1-c1ccccc1
34 µM (inactive)
O=P1(O)c2ccccc2CSCc2ccccc21
> 100 µM (inactive)
CC1(C)CC[C@]2(C(=O)O)CCC3(C)C(=CCC4[C@@]5(C)CC[C@H](OC6OCC(O)C(O)C6OC6OC(CO)C(O)C(O)C6O)C(C)(C)C5CC[C@]43C)C2C1 (some centres undefined)
1.71 µM (inactive)
O=C1C[C@@H]2C(COC(=O)c3ccccc3)N(OCc3ccccc3)C[C@@H]2O1 (some centres undefined)
> 100 µM (inactive)
CCOC(=O)C(C(=O)OCC)=c1sc(=C(C(=O)OCC)C(=O)OCC)s1
> 100 µM (inactive)

====

Attribute: GI50
- Test system: U-251
- MEASUREMENT DESCRIPTION: NCI tumour cell line growth inhibition, 48 h
Activity calls are given as the source filed them. No stated cut-off is given here; in the data, active = GI50 up to about 1.1 µM and inactive = higher.
RESULT TYPE: GI50

COc1cc(/C=C/C2=NN(c3cccc(S(=O)(=O)O)c3)C3(C2)C(Cl)C(=O)N3c2nc3ccccc3s2)ccc1O (stereo not given)
18 µM (inactive)
COc1cc(O)c(/C=N/N=C(\N)NO)c(OC)c1
> 10 µM (inactive)
Oc1c2c(c(O)c3ccccc13)C1(N=N2)c2ccccc2Oc2ccccc21
3.9 µM (inactive)
Cc1ccc(C)c(NC(=O)C(=O)C(c2cnc3ccc([N+](=O)[O-])cc3n2)[N+](=O)[O-])c1 (stereo not given)
40.8 µM (inactive)
COC(=O)c1c(C)cccc1C1CN=NC12Cc1c(C)cccc1C2=O (stereo not given)
> 100 µM (inactive)
C=C1C(=O)O[C@H]2[C@@H](O)[C@H](C)CCC[C@]3(C)O[C@H]3CC[C@@]3(C)O[C@@H]3C[C@@H]12
8.57 µM (inactive)
O=C(/C=N/O)c1c(-c2ccccc2)[nH]c(-c2ccccc2)c1-c1ccccc1
14.5 µM (inactive)
CC(Cn1c2c3ccccc3ccc2c2oc(=O)c3ccccc3c21)N(C)C (stereo not given)
> 100 µM (inactive)
O=C1CCCC2C(O)CCC[C@H]12 (stereo not given in full)
> 100 µM (inactive)
CC(=O)N1CCc2[nH]c3ccccc3c2CC1
> 100 µM (inactive)
